Test system: Saccharomyces cerevisiae;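 note: PSI is a weighted mean of sequencing reads over stability bins, variants kept only with over 10 reads, mCherry proximal and sfGFP distal, peptide attached via GGGS linker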
Test: protein stability index of tFT-peptide fusion (C-terminal peptide) (PSI (0-1 scale)); higher = more stable (slower turnover)
Conditions: genetic background: wild type; temperature: 30 C
Param threshold (0.7) applies to protein stability index; output MET when value >= threshold, NOT MET when value < threshold.

Hello, I need to know if FSRLNAKLPCLA has measured protein stability index not below 0.7. Thanks!
NOT MET

Hello, I need to know if PSPQNIPDPISP has measured protein stability index not below 0.7. Thanks!
NOT MET

Hello, I need to know if PPLQRFSYRPGR has measured protein stability index not below 0.7. Thanks!
MET

Hello, I need to know if WVTSSTRGRSGS has measured protein stability index not below 0.7. Thanks!
NOT MET

Hello, I need to know if FVGVVCILWLVG has measured protein stability index not below 0.7. Thanks!
NOT MET

Hello, I need to know if MIQPRLANIIIS has measured protein stability index not below 0.7. Thanks!
MET

Hello, I need to know if VFSFWVLCEVSV has measured protein stability index not below 0.7. Thanks!
NOT MET

Hello, I need to know if IWVGNEENEEII has measured protein stability index not below 0.7. Thanks!
NOT MET

Hello, I need to know if FFPARPPPPPPR has measured protein stability index not below 0.7. Thanks!
MET

Hello, I need to know if GCGREGGGLDKD has measured protein stability index not below 0.7. Thanks!
MET

Hello, I need to know if GISPFYTALSGF has measured protein stability index not below 0.7. Thanks!
MET

Hello, I need to know if PPASSPRRPTPP has measured protein stability index not below 0.7. Thanks!
NOT MET

Hello, I need to know if DEEVGWGRGGGW has measured protein stability index not below 0.7. Thanks!
NOT MET

Hello, I need to know if VRCCFGGRGAIA has measured protein stability index not below 0.7. Thanks!
NOT MET

Hello, I need to know if LPPHLPFPLSAA has measured protein stability index not below 0.7. Thanks!
NOT MET

Hello, I need to know if YFVLVRLICFLL has measured protein stability index not below 0.7. Thanks!
NOT MET

Hello, I need to know if KCCRVTCCGGLR has measured protein stability index not below 0.7. Thanks!
NOT MET

Hello, I need to know if PRSTFLRRHLRV has measured protein stability index not below 0.7. Thanks!
NOT MET

Hello, I need to know if LLFFFTWCLCCF has measured protein stability index not below 0.7. Thanks!
NOT MET

Hello, I need to know if LLLFSILPFCLF has measured protein stability index not below 0.7. Thanks!
NOT MET

Hello, I need to know if PVLYWHSYRLCR has measured protein stability index not below 0.7. Thanks!
NOT MET

Hello, I need to know if SPSRPQPPPLSA has measured protein stability index not below 0.7. Thanks!
MET

Hello, I need to know if IMWCSSVSEVQW has measured protein stability index not below 0.7. Thanks!
NOT MET

Hello, I need to know if IILDRQNRDLKY has measured protein stability index not below 0.7. Thanks!
NOT MET

Hello, I need to know if TLQKKLTVNTKK has measured protein stability index not below 0.7. Thanks!
MET

Hello, I need to know if LGFCRLVFGVVG has measured protein stability index not below 0.7. Thanks!
NOT MET

Hello, I need to know if VVTLHISLFYPG has measured protein stability index not below 0.7. Thanks!
NOT MET

Hello, I need to know if RSRRNRYSRKIA has measured protein stability index not below 0.7. Thanks!
NOT MET

Hello, I need to know if SRISSGKFTGAV has measured protein stability index not below 0.7. Thanks!
NOT MET

Hello, I need to know if PFPPPPVPHARR has measured protein stability index not below 0.7. Thanks!
MET

Hello, I need to know if ISSYKFLRIVLV has measured protein stability index not below 0.7. Thanks!
NOT MET

Hello, I need to know if DVLRLRSVFFCG has measured protein stability index not below 0.7. Thanks!
NOT MET

Hello, I need to know if RYRPSPPPPPPH has measured protein stability index not below 0.7. Thanks!
MET

Hello, I need to know if PLFPACYFHPFD has measured protein stability index not below 0.7. Thanks!
MET

Hello, I need to know if ASTPLPTSPPPP has measured protein stability index not below 0.7. Thanks!
NOT MET

Hello, I need to know if KTHTIGPSPYYD has measured protein stability index not below 0.7. Thanks!
NOT MET

Hello, I need to know if LWVGVVGGVRGV has measured protein stability index not below 0.7. Thanks!
NOT MET

Hello, I need to know if TLSSLVGACLYV has measured protein stability index not below 0.7. Thanks!
NOT MET

Hello, I need to know if NSTLSSNATRVK has measured protein stability index not below 0.7. Thanks!
MET

Hello, I need to know if RKKKKDKSAIKE has measured protein stability index not below 0.7. Thanks!
MET

Hello, I need to know if GGLVGACTRLSG has measured protein stability index not below 0.7. Thanks!
NOT MET

Hello, I need to know if KKELKKRNKAKK has measured protein stability index not below 0.7. Thanks!
NOT MET

Hello, I need to know if GRRNVGLKNSGL has measured protein stability index not below 0.7. Thanks!
NOT MET

Hello, I need to know if SGRGVEVGGEGE has measured protein stability index not below 0.7. Thanks!
MET

Hello, I need to know if TNNLRLKVIGPK has measured protein stability index not below 0.7. Thanks!
NOT MET

Hello, I need to know if KLRELQVRQQLS has measured protein stability index not below 0.7. Thanks!
NOT MET

Hello, I need to know if GLGVIFFLLGYG has measured protein stability index not below 0.7. Thanks!
NOT MET

Hello, I need to know if LLVKFTFLIIFT has measured protein stability index not below 0.7. Thanks!
NOT MET

Hello, I need to know if FAPTRAAPVTVS has measured protein stability index not below 0.7. Thanks!
NOT MET

Hello, I need to know if LRGTEMMSTSVV has measured protein stability index not below 0.7. Thanks!
NOT MET

Hello, I need to know if GSFYGAVYVVPV has measured protein stability index not below 0.7. Thanks!
NOT MET

Hello, I need to know if RDTHSEPKPAQY has measured protein stability index not below 0.7. Thanks!
MET

Hello, I need to know if LLPFHPPPPCPP has measured protein stability index not below 0.7. Thanks!
MET

All values here come from the supplement of paper PMC10724198.
